The binders listed here are annotated with their Apical domain:HSA.
# tgt: T1, apical domain of human CD71 (human, UniProt P02786 189-383, limits assumed)
# T1 construct: domain: apical domain; Screen 4 panned on human apical domains, the ELISA text says only 'apical domain'
# procedure.summary: primary ELISA, RLU over HSA
Answer as a number with no unit attached.

binder: CD71-binding FN3 domain of SEQ ID NO: 504 (designed binder) MLPAPKNLVVSRVTEDSARLSWTAPDAAFDSFFIGYLEPQPPGEAIGLVVPGSERSYDLTGLKPGTEYNVTIQGVKGGFPSHPLGAIFTT
metric.name: Apical domain:HSA
recorded.measurement: 172

Now look at this entry.
Prompt line: What does the record list as Apical domain:HSA for CD71-binding FN3 domain of SEQ ID NO: 540 (designed binder) MLPAPKNLVVSRVTEDSARLSWTAPDAAFDSFYIAYAEPRPDGEAIILVVPGSERSYDLTGLKPGTEYSVLIHGVKGGLLSSPLDAGFTT ?
Response line: 306
